B1: KRT13 (parent)
chain: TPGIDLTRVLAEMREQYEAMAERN

- Variants of: B1
- assay_summary: protein stability index of a GFP-peptide fusion (GPS, HEK-293T) (PSI 1-6); higher = more stable;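 also: lentivirally expressed fusions sorted by FACS into six bins by GFP to DsRed ratio, PSI derived from sequencing read proportions per bin multiplied by bin number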
- conditions_used: c terminus: a fixed tail appended
# label = Satisfied if protein stability index >= 4 else Not satisfied

[[record]]
mutation_id = "M20F"
answer_label = "Not satisfied"

[[record]]
mutation_id = "E22F"
answer_label = "Not satisfied"

[[record]]
mutation_id = "R14H"
answer_label = "Not satisfied"

[[record]]
mutation_id = "N24H"
answer_label = "Satisfied"

[[record]]
mutation_id = "E12M"
answer_label = "Not satisfied"

[[record]]
mutation_id = "E15A"
answer_label = "Not satisfied"

[[record]]
mutation_id = "T1D"
answer_label = "Not satisfied"

[[record]]
mutation_id = "L6D"
answer_label = "Not satisfied"

[[record]]
mutation_id = "I4F"
answer_label = "Not satisfied"

[[record]]
mutation_id = "L10Y"
answer_label = "Satisfied"

[[record]]
mutation_id = "R23I"
answer_label = "Not satisfied"

[[record]]
mutation_id = "Q16F"
answer_label = "Not satisfied"

[[record]]
mutation_id = "E22K"
answer_label = "Satisfied"

[[record]]
mutation_id = "L6G"
answer_label = "Satisfied"

[[record]]
mutation_id = "A19L"
answer_label = "Not satisfied"

[[record]]
mutation_id = "R8Q"
answer_label = "Satisfied"

[[record]]
mutation_id = "Y17W"
answer_label = "Satisfied"

[[record]]
mutation_id = "A21Y"
answer_label = "Satisfied"

[[record]]
mutation_id = "A19M"
answer_label = "Not satisfied"

[[record]]
mutation_id = "T1P"
answer_label = "Satisfied"

[[record]]
mutation_id = "Q16L"
answer_label = "Not satisfied"

[[record]]
mutation_id = "A21I"
answer_label = "Satisfied"

[[record]]
mutation_id = "P2T"
answer_label = "Not satisfied"

[[record]]
mutation_id = "T1S"
answer_label = "Not satisfied"

